# assay.overview: nuclear p53 accumulation, HPV+ cells – imaging, p53-positive nuclei imaging, 24 h, 48 h (AID 1508601)
# run.conditions: 24/48 h, measured here: cell number at 24 h, Library stock concentration: 80 uM
Out of some 5,700 compounds screened, about 85 (1%) were called active. Only a selection was taken, and actives are over-represented in it overall.
Answer each item with its documented nuclei count, normalised.
Numbers only, in %.

Here is how some molecules turned out for nuclei count, normalised.
Give its nuclei count, normalised value. Item: O=C(Cc1ccc(-c2ccc(OCCN3CCOCC3)cc2)cn1)NCc1ccccc1
42.9

Query Cn1cc(C2=C(c3cn(CCCSC(=N)N)c4ccccc34)C(=O)NC2=O)c2ccccc21 next
108

Entry to check: OCc1c[nH]c2ccccc12
116

Continue with CCN1CCN(Cc2ccc(Nc3ncc4c(n3)N(C)c3ccccc3C(=O)N4C)cc2C(F)(F)F)CC1
77.9

Another molecule: COc1cc(OC)cc(-c2ccc3ncc4ccc(=O)n(-c5ccc(N6CCNCC6)c(C(F)(F)F)c5)c4c3c2)c1
106

Then O=C(C=Cc1cccc(S(=O)(=O)Nc2ccccc2)c1)NO ?
108

Would you kindly repeat that for CN1CCC(c2c(O)cc(O)c3c(=O)cc(-c4ccccc4Cl)oc23)C1CO (stereo not drawn) ?
103

Again, but for COC(=O)N1C(=O)[C@](c2ccccc2)(C2CCCC2)N1C(=O)OC
90.3

Please give nuclei count, normalised for each item listed below.
1. c1cc(NCCc2c[nH]c3ccccc23)cc(Nc2ccncc2)c1
2. Nc1ncn([C@@H]2O[C@@H](CO)[C@H](O)[C@@H]2O)c(=O)n1

103
122

Hello, I would appreciate it if you could give nuclei count, normalised for each entry below.
1. O=Nc1c(O)[nH]c2c(Cl)c(Cl)ccc12
2. OC1CCC(Nc2ncc3nc(Nc4c(F)cc(F)cc4F)n(C4CCOC4)c3n2)CC1 (stereo not drawn)
3. C#C[C@]1(O)CC[C@@H]2[C@@H]3CCc4cc(O)ccc4[C@@H]3CC[C@@]21C
4. O=C(CCCCCCC(=O)Nc1ccccc1)NO

1: 111; 2: 108; 3: 97.1; 4: 112

Look up nuclei count, normalised for the entries below, preserving their order.
1. COc1cc(=C2C=c3ccccc3=N2)[nH]c1=Cc1[nH]c(C)cc1C
2. NC(=O)c1ccc(-c2nc(-c3ccc4c(c3)OCCO4)c(-c3ccccn3)[nH]2)cc1
3. CS(=O)(=O)N1CCN(Cc2cc3nc(-c4cccc5[nH]ncc45)nc(N4CCOCC4)c3s2)CC1
4. CC1CCNC(=O)c2cc3ccc(C(=O)Nc4nc5ccccc5n4CCCN(C)C)cc3n21 (stereo not drawn)
5. O=C(O)CCCC=CCC1C(O)CC(O)C1C=CC(O)COc1cccc(Cl)c1 (stereo not drawn)
6. COC(=O)c1c(NC(=O)CC2SC(=N)NC2=O)sc(C)c1C (stereo not drawn)
7. O=C1NCCCc2c1oc1ccc(O)cc21
8. CC(=O)NC(CC(C)C)C(=O)NC(CC(C)C)C(=O)NC(C=O)CCCN=C(N)N (stereo not drawn)

1. 104
2. 108
3. 105
4. 112
5. 91.3
6. 98.4
7. 99.3
8. 88.7

Hi, could you look up nuclei count, normalised for each item in my list?
1. CN1CCN(C(=S)SSC(=S)N2CCN(C)CC2)CC1
2. COc1ccc2nc3ccc(OC)cc3c(SCCCN)c2c1
3. CN1CCN(c2ccc(Nc3c4ccccc4nc4ccccc34)cc2)CC1
4. Nc1ccccc1NC(=O)c1ccc(CNC(=O)OCc2cccnc2)cc1
5. Cc1nc(Nc2n[nH]c3c2CN(C(=O)NC(CN(C)C)c2ccccc2)C3(C)C)c2sccc2n1 (stereo not drawn)

108
111
110
114
95.1

Below is a list of molecules. For each, state its recorded nuclei count, normalised.
1. O=C(NOCC(O)CO)c1ccc(F)c(F)c1Nc1ccc(I)cc1F (stereo not drawn)
2. COc1ccc(N(C(=O)Nc2c(C)cccc2C)c2cc(Nc3ccc(N4CCN(C)CC4)cc3OC)ncn2)c(OC)c1
3. Nc1ccccc1NC(=O)c1ccc(CNc2nccc(-c3cccnc3)n2)cc1
4. CC(NC(=O)c1cc(Cl)ccc1Oc1ccc(F)cc1)c1ccc(C(=O)O)cc1 (stereo not drawn)
5. O=C1SC(=Cc2ccc(OCc3cccc(B(O)O)c3)cc2)C(=O)N1Cc1ccc(F)cc1
6. O=C(Nc1ccc(-c2ccnc(Nc3ccc(N4CCOCC4)cc3)n2)cc1)C1CCCN1 (stereo not drawn)
7. CC(C)CC(NC(=O)C(O)C(N)Cc1ccccc1)C(=O)O (stereo not drawn)
8. Cc1c(CN2CCN(C(=O)C(C)O)CC2)sc2c(N3CCOCC3)nc(-c3cnc(N)nc3)nc12 (stereo not drawn)

[110, 104, 128, 115, 110, 114, 115, 107]

Hey, quick one: what's nuclei count, normalised for each of these?
1. CC(C)C1C(=O)NC(CCCN=C(N)N)C(=O)NCC(=O)NC(CC(=O)O)C(=O)NC(Cc2ccccc2)C(=O)N1C (stereo not drawn)
2. Cc1ccc(NC(=O)c2ccc(CN3CCN(C)CC3)cc2)cc1Nc1nccc(-c2cccnc2)n1
3. CCCCc1ccc(N=CNO)c(C)c1

[104, 114, 102]
